- Assay Details: soluble fraction after stress (log2 fold change); higher = more stays soluble; pooled small domains, quantitative proteomics
- Run Parameters: stress: pH 4
// label = Condition met if soluble fraction (log2) is not less than -0.2, otherwise Condition not met

Please review the entries below; each comes with its answer.
[[record]]
sequence_data = "HMNMRVLSEQPNKKSYQDGNLRLKVFGASFKKSDILNEALNQARVEETGLQIPKLLEVKQIDGQWTIVTE"
class_name = "Condition not met"

[[record]]
sequence_data = "HMAGITLHAEEGRVRIRSQSEGLVKVLDAMGREQASWPLRSKGWWFFLTEGWAPGTYFVKTESGETQRFLV"
class_name = "Condition met"

[[record]]
sequence_data = "HMVMTTVPEVLGMDISKAASLLTGKNLDYDYDLVESDKPKDQVIEQDVVKGTEVPEGTVIHLKVSKGPA"
class_name = "Condition met"

[[record]]
sequence_data = "HMYDEAAIRKAVMTFVTDNRDERLDLAKISAVLTSKFGNINFDELGYKRFSSFIDSFPELRRNNTFVSLR"
class_name = "Condition met"

[[record]]
sequence_data = "HMTEDTPIIVERVVADIDENVVAIVRKFKDAFKSITAQREIKKKLRSILWVNYQIKDQEVFDKAYQYIEMY"
class_name = "Condition not met"


Reported soluble fraction (log2) reaches at least -0.2 for "HMAKRDEIEAELPRFVATITQELAASRDVLSMIEHYKQNSGPVFSAELDVLTADMRSGSYEAALTRFEARF" ?
Condition met

Every entry's value here was drawn from the domain aggregation screens of Martell et al. (2025).
